# credit: paper PMC4475797

# target entity: Concanavalin A (Con A) (Canavalia ensiformis)
# Construct: purchased Sigma
# assay summary: biochemical
# Format: binding
pKd: −log10 of the molar value.

compound: Nc1ncnc2[nH]cnc12 [adenine]
pKd: 6.42
